- TARGET ENTITY: T1, CREB1 bZIP (UniProt P16220 269-327)
- T1 sequence: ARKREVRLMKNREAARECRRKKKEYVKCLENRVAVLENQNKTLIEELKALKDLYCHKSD
- ASSAY NOTES: competition (FP); antagonist peptide ATF2W; FP: chloride salt (buffer and salt concentration truncated in material), 5 mM MgCl2, 10 mM TCEP, pH 7.4; 10 nM FAM-DNA; 1 h incubation, temperature not in material
- DETAILS: chain copies: 2; label: 5' 6-FAM; blunt; self-complementary, 2 copies
MEASUREMENT NAME: IC50 (nM)
Give the number; nM is assumed, so skip it.

*Q* Which IC50 is listed for FAM-CRE (dsDNA) DNA 1: GCGCTGACGTCAGCGC DNA 2: GCGCTGACGTCAGCGC ?
*A* 2360

Hello, the source for this data is paper PMC12648313, in case you need it.
